apparent Kd listing for selected sequences.
System: MS2 coat protein
Assay: apparent Kd, MS2 coat protein; higher = weaker binding; RNA-MaP array
Details: designed as: ON switch for theophylline; no ligand
Could you give me the number in nM? Just the number is fine.

What measured apparent Kd goes with AAUCCAAGAAAUGAUACCAGUCCCACUCAGGACAUGAGGAUCACCCAUGUAAUACAGGGAGACCCUUGGCAGCAUCGAAUAAACA ?
432

What measured apparent Kd goes with CAUGAUAAGUUGGAUACCAGCAUAUGGAACAACAUGAGGAUCACCCAUGUCAAAUGACAUUGCCCUUGGCAGCCACCUACUGUCA ?
20.3

----------
apparent Kd listing for selected sequences.
System: MS2 coat protein
Experiment: apparent Kd, MS2 coat protein; higher = weaker binding; RNA-MaP array; FMN 200 µM where present
Conditions: designed as: OFF switch for flavin mononucleotide; no ligand
Could you give me the number in µM? Just the number is fine.

Guide cases for apparent Kd, answers given:
* UGAUCGAGAGAUCUUAGAUUCUGGUAGGAUAUACAUUAAAAGCGCUUUACAUGAGGAUCACCCAUGUAGAAGGACUAGAGUCUA | 0.00751
* CCCGUGUGUUAAGGAUAUGGCAGGCGCGUUGAACCAGAAGGUAGCACAUGAGGAUCACCCAUGUGAAUGCUCGCGACUCGAGCG | 0.0436

Item: GUACUGUAGUGAGGAUAUACGAGUGCGAUAGCACGGCGAUCCAAUUAUACAUGAGGAUCACCCAUGUAGAAGGCACUUCAGUAC Test system: MS2 coat protein Read-out: apparent Kd Value: ?
0.00904

Item: GUACUGUAGUGAGGAUAUACGAGUACGAUAGUACGGCGAUCCAUUUAUACAUGAGGAUCACCCAUGUAGAAGGCACUUCAGUAC Test system: MS2 coat protein Read-out: apparent Kd Value: ?
0.00609

Item: ACCGUGCAAGGAUAUCGUUACCUCGACAUGAGGAUCACCCAUGUGGCCAUAUAGCGAUUGCGAGAAGGUGCGGGUA Test system: MS2 coat protein Read-out: apparent Kd Value: ?
0.127

Item: UCACGGGUUUGAGGAUAUAUAUUUAUUAUUUUAAUAGAAGGCAAAGAGAUAGUUUUUUCACUAUACAUGAGGAUCACCCAUGUU Test system: MS2 coat protein Read-out: apparent Kd Value: ?
0.0415

Item: CAGUACUGAGGAUAUACAUGAGGAUCACCCAUGUGUUCCAGCUAGGGAACUAGCAAAAGUAGAAGGCAGUACUG Test system: MS2 coat protein Read-out: apparent Kd Value: ?
0.0224

----------
System: MS2 coat protein
Experiment: apparent Kd, MS2 coat protein; higher = weaker binding; RNA-MaP array; FMN 200 µM where present
Conditions: ligand present: flavin mononucleotide; designed as: ON switch for flavin mononucleotide
Class 1: apparent Kd at least 40 nM. Class 0: apparent Kd below 40 nM.

• UUGGACGUCGUAGGCUAUGUAGGAUAUUCCUACAUGAGGAUCACCCAUGUUGACAUGGAAGAAGGACAGAAGGACGAUGUCCAU = 0
• ACAGAAGCACCCGGAACCGGACAAUGAGAAGGCCACGCACAUGAGGAUCACCCAUGUAAAGCUAUGGAGGAUAUCAUGAUGGAU = 0
• GGUAGCAACACAGGAUAUGCUAUCCUUUGGGUAGCAGAAGGGUGAAACAUGAGGAUCACCCAUGUGCUGCCAGGGCGUGAGCCC = 1
• UUACCUUAUGAGAAGGCGAUCAUGAAACAUGAUCGAGGAUAUCAUGUAAACAUGAGGAUCACCCAUGUAUGGGUAUUAUGGUAG = 0
• AGAAGACAUGAGGAUCACCCAUGUGCACGUGGAGGAGGAUAUGCUAGUAGAAGAUAGAAUGCAGAAGGCCUAAGAA = 1

Reported apparent Kd at or above 40 nM? UUAGUCAUGUGACGUGUUGACAUUCCAGAAGGGCCACAUGAGGAUCACCCAUGUCGAAGAAACAGGCAGGAUAUGGACCAAUGG
0

Reported apparent Kd at or above 40 nM? AUAUCUUACCAAGGAUAUUUAAGAUUUGUGUAGACAUGAGGAUCACCCAUGUGGCCUUAGUCACGGGAGAAGGUGGUUUGAUAU
1

Reported apparent Kd at or above 40 nM? UGGUCAUGAUCAGGAUAUUAACAUGGGCUACAUUAAGAAGGGAUAGUGAGAUGCGAACUGAACGACAUGAGGAUCACCCAUGUA
0

Reported apparent Kd at or above 40 nM? UUGGACGUCGUAGGAUAUGUAGCAUAUUCCUACAUGAGGAUCACCCAUGUUGACAUGGAAGAAGGACAGAAGGACGAUGUCCAU
0

Reported apparent Kd at or above 40 nM? GAUUGGCGACAAUUACAUGAGGAUCACCCAUGUUGUAGUAUGCAGGAUAUGUGGUAUAUUAUUUAACAGAAGGGCAAUAAUUUU
1

Reported apparent Kd at or above 40 nM? GUAGCUAUCGGAGGAUAUCCUCAGCGGAAACGCACAUGAGGAUCACCCAUGUAAAUAAAUAAUUUGGAGAAGGCCGAUAGCUAC
0

Reported apparent Kd at or above 40 nM? GGACGUCACAUUAACAUGAGGAUCACCCAUGUCUCUAGACAUGAGGAUAUGGAUCCUAAUUGGAUCCAGAAGGCAUGGACGUCC
1

Reported apparent Kd at or above 40 nM? UACAAUCUAUCUGAGGAUAUCAUGAUUAUAACAUGAGGAUCACCCAUGUGCAGGAAAACUGCAUAUGAGAAGGCAGAUAGAUUGU
1

----------
System: MS2 coat protein
Assay: apparent Kd, MS2 coat protein; higher = weaker binding; RNA-MaP array; FMN 200 µM where present
Conditions: ligand present: flavin mononucleotide; designed as: OFF switch for flavin mononucleotide
Quantity name: apparent Kd (nM)
Could you give me the number in nM? Just the number is fine.

Guide cases for apparent Kd, answers given:
• UCUGCAUAGUCAGGAUAUGCAAAGUAAUGUAUGGAAACAUACAUUACAACAUGAGGAUCACCCAUGUAGAAGGGACUGUGCAGA = 13
• CACAAGAAAGUCGAAGGUUGAAGUAGAAGGACUAUAACAUGACAUGAGGAUCACCCAUGUGCCAAGUAGGAUAUGCUUUAAUCG = 7.38
• UUUCCGCGAGGAUAUGCGGGCUGUGCUUUUCAUUUCUUACCACAUGAGGAUCACCCAUGUAGAAGGUGCUUCUU = 136

Item: CAGGUAGCUAGAGGAUAUACACGUCUGGAUAAACCAGACGAAUAAACCACAUGAGGAUCACCCAUGUAGAAGGCUAGCUGCCUG Test system: MS2 coat protein Read-out: apparent Kd Value: ?
22.7

Item: UCUAAUUAGUGAGGAUAUACAUAAUUUAUUACUGUAGAAGGCACAAACCUCAAGACAUGAGGAUCACCCAUGUGGUAUUUAGAU Test system: MS2 coat protein Read-out: apparent Kd Value: ?
362

Item: UUUUAACAUGAGGAUCACCCAUGUGAGGAUAUCGAAAUUUAUAUUAAUAUUAUUAAUUCGAGAAGGCACAUUUU Test system: MS2 coat protein Read-out: apparent Kd Value: ?
117

Item: AAGCAGUGUAAAUAAACUCAAAUACAUGAGGAUCACCCAUGUAAGGAUAUGCAGUGGAAUACACUGCAGAAGGUACAUCACUGC Test system: MS2 coat protein Read-out: apparent Kd Value: ?
22.6

----------
System: MS2 coat protein
Test: apparent Kd, MS2 coat protein; higher = weaker binding; RNA-MaP array
Details: ligand present: tryptophan; designed as: OFF switch for tryptophan
Quantity name: apparent Kd (nM)
Could you give me the number in nM? Just the number is fine.

Guide cases for apparent Kd, answers given:
- CUCGUCAACUCGGCCGCCACUGACGUGUGGUCAGGCCUGUAGAAACACAUGAGGAUCACCCAUGUCAGGACCGGGAGCUUUAUUA: 58.2
- UUGUGGUAGGCGCAUACUCAUUUAUACAAGCGAGGACCGGUACGGCCGCCACUCGGAAUAAAACAUGAGGAUCACCCAUGUACCG: 19.1
- ACUUGUGAGUCGGCCGCCACUCACCGGUAGUGUCACUCGUUCACAAACAUGAGGAUCACCCAUGUGAGGACCGGGACAGUCGGGU: 25.8

What measured apparent Kd goes with ACCAACCACACCCUUCACUGUUUUCGCCGCCGAGGACCGGUACGGCCGCCACUCGUACAAAGACAUGAGGAUCACCCAUGUGCCU ?
21.4

----------
System: MS2 coat protein
Test: apparent Kd, MS2 coat protein; higher = weaker binding; RNA-MaP array; FMN 200 µM where present
Details: ligand present: flavin mononucleotide; designed as: ON switch for flavin mononucleotide
Quantity name: apparent Kd (nM)
Could you give me the number in nM? Just the number is fine.

Guide cases for apparent Kd, answers given:
- GCAGCGCUUGACAUGAGGAUCACCCAUGUUAGAUUGUUAUGUCAGGAUAUAGUCUAGAAACUAGACUAGAAGGGAUAUGCUGCU: 34.1
- UUGGCGACGUAGAAGGGUGACAUGAGGAUCACCCAUGUGCCGAUAUGUCUCGAGAUAUGUCGGCCACAGGAUAUACGUGCCAUC: 38.5
- AAUCAACGAAUACCAGGGCAUUAAUGAGAAGGCCAAUCACAUGAGGAUCACCCAUGUACGAGAGUGGAGGAUAUCAGUGGGCCG: 11.3

# evaluate next
What measured apparent Kd goes with UCGUACAUUCGAGGAUAUCGGUGAUUAAUAAUACGAGAAGGCGAUUUUAGGCAUAAAGCCUUAGACAUGAGGAUCACCCAUGUA ?
53.7
